Attribution: ChEMBL document CHEMBL3397002

METHOD: Cytotoxicity against human HepG2(2.2.15) cells assessed as decrease in cell viability after 72 hrs by MTS assay
Format: cell-based
STUDY_CONDITIONS: read-out: TC50
Exam item: assign Criterion met to entries whose CC50 at 72 h is below 20 µM and Criterion not met to entries at or above 20 µM. Note that a value of exactly 20 µM receives Criterion not met.

// query Bench note: check whether `COc1ccc(C(C)=O)c(OS(=O)(=O)c2ccccc2)c1` shows CC50 at 72 h below 20 µM
// result Criterion not met

More entries:
// query is_below(CC50 at 72 h, 20 µM) for `COc1ccc(C(C)=O)c(OS(=O)(=O)c2ccc(Br)cc2)c1` ?
// result Criterion met

// query Please check: CC50 at 72 h for `COc1ccc(C(C)=O)c(OS(=O)(=O)c2ccc(C)cc2)c1` , strictly under 20 µM or not?
// result Criterion not met

// query Does `COc1ccc(C(C)=O)c(OS(=O)(=O)c2ccc(F)cc2)c1` have CC50 at 72 h strictly under 20 µM?
// result Criterion not met

// query I'd appreciate it if you could check whether `COc1ccc(S(=O)(=O)Oc2cc(OC)ccc2C(C)=O)cc1` has CC50 at 72 h smaller than 20 µM.
// result Criterion met

// query Report whether reported CC50 at 72 h is lower than 20 µM (strictly) for `COc1ccc(C(C)=O)c(OS(=O)(=O)c2ccc(N)cc2)c1`
// result Criterion not met
